- Protocol Text: qHTS assay for identifying genotoxic compounds that show differential cytotoxicity against isogenic chicken DT40 cell lines with known DNA damage response pathways - wild type cell line (AID 743012); further: nearly all actives have a fitted effect of over 60% in size; further: potency means the concentration at half of the fitted maximal effect
- Condition Summary: DT40 wild type chicken cells viability, CellTiter-Glo, 40 h; series mostly up to 68.4 µM
Inconclusive results are not listed. The source made the active and inactive calls. The call rests on the fitted dose curve; in most records, active means well fitted cell-killing curve with a large enough effect in the repeat runs; inconclusive means weak or mixed curves, or effect the other way; inactive means no such curve, though single readings can be large or run the other way.
Property Label: Potency

Reference set (5 entries):
CO[C@]1(NC(=O)CSC(F)F)C(=O)N2C(C(=O)O)=C(CSc3nnnn3CCO)CO[C@H]21 :: inactive
C[C@@]12CCC[C@H]1[C@@H]1CC[C@H]3C[C@@H](O)CC[C@]3(C)[C@H]1CC2 :: inactive
Brc1cc(Br)c(Oc2cc(Br)c(Br)cc2Br)cc1Br :: inactive
O=C1c2ccccc2C(=O)c2c(O)c(O)cc(O)c21 :: inactive
CC(=O)OCCN(CCOC(C)=O)c1ccc(N=Nc2ccc([N+](=O)[O-])cc2C#N)cc1 :: 61.1 µM (active)

The recorded Potency for `NCCNCCO` is inactive

The recorded Potency for CCC(C)COC(=O)CC(C)C (centres undefined) is 68.6 µM (active)

The recorded Potency for COc1cc(N)c(Cl)cc1C(=O)NC1CCN(CCCOc2ccc(F)cc2)CC1OC (centres undefined) is 11.4 µM (active)

The recorded Potency for `c1ccc2c(c1)CCc1ccccc1N2` is inactive

The recorded Potency for `COc1cc(C(=O)NCCCCCC(=O)O)cc(OC)c1OC` is inactive

The recorded Potency for `Cc1cc(=O)c2c(O)c3c(O)cc(=O)c4c3c3c(cc(O)c1c23)C(C)(C)C=4O` is 0.944 µM (active)

The recorded Potency for `CCCCCCCCCCCCCCN(CCO)CCO` is 2.43 µM (active)

The recorded Potency for `CC(=O)[C@H]1[C@H](C#N)C[C@H]2[C@@H]3CC=C4C[C@@H](O)CC[C@]4(C)[C@H]3CC[C@@]21C` is 37.1 µM (active)

The recorded Potency for `O=C1NCCN1CCO` is inactive

The recorded Potency for `COc1ccccc1Oc1c(NS(=O)(=O)c2ccc(C(C)(C)C)cc2)nc(-c2ncccn2)nc1OCCO` is inactive

The recorded Potency for `CCCC(C(=O)OCCN(CC)CC)(c1ccccc1)c1ccccc1` is 8.41 µM (active)

The recorded Potency for `CCn1cc(C(=O)O)c(=O)c2cc(F)c(N3CCNCC3)cc21` is inactive

* * *

- Protocol Text: qHTS assay to identify small molecule agonists of the RXR signaling pathway - cell viability counter screen (AID 1159529); further: nearly all actives have a fitted effect of over 50% in size
- Condition Summary: RXR-alpha-bla HEK293T viability, CellTiter-Glo, 16 h; series mostly up to 76.8 µM
Records with an inconclusive call do not appear. Calls of active or inactive are those of the source. Calls come from the whole dose curve; as a rule, active = well fitted cell-killing curve with a large enough effect in the repeat runs; inconclusive = weak or mixed curves, or effect the other way; inactive = no such curve, though single readings can be large or run the other way.
I would appreciate it if you answered using one of these outcomes: active, inactive

# example entries with known answers
CCOc1ccc(Cc2nccc3cc(OCC)c(OCC)cc23)cc1OCC :: inactive
COC(=O)CS :: inactive
C[C@H]1c2cccc(O)c2C(O)=C2C(=O)[C@]3(O)C(O)=C(C(N)=O)C(=O)[C@@H](N(C)C)[C@@H]3[C@@H](O)[C@@H]21 :: inactive
C(=C\c1ccccc1)/c1ccccc1 :: inactive
CC[N+](CC)(CCNC(=O)C(=O)NCC[N+](CC)(CC)Cc1ccccc1Cl)Cc1ccccc1Cl :: inactive

Given `CN1CC(=O)N2[C@H](c3ccc4c(c3)OCO4)c3[nH]c4ccccc4c3C[C@@H]2C1=O` , state the outcome it received in this test. inactive

Given `O=c1[nH]c2ccc(Cl)cc2o1` , state the outcome it received in this test. inactive

Given `CCC(C)(C)OC` , state the outcome it received in this test. active

Given `OCCOCC#CCOCCO` , state the outcome it received in this test. inactive

Given `Cc1cscn1` , state the outcome it received in this test. inactive

Given `CC(=O)N/N=C/c1ccc([N+](=O)[O-])o1` , state the outcome it received in this test. inactive

Given CCC(OCCCOC)OC(C)=O (stereo not drawn) , state the outcome it received in this test. inactive

Given `O=C1NCCN1CCO` , state the outcome it received in this test. inactive

Given `CC(C)C[C@H](NC(=O)[C@H](CCc1ccccc1)NC(=O)CN1CCOCC1)C(=O)N[C@@H](Cc1ccccc1)C(=O)N[C@@H](CC(C)C)C(=O)[C@@]1(C)CO1` , state the outcome it received in this test. inactive

Given `C=CC(=O)[O-].C=CC(=O)[O-].[Zn+2]` , state the outcome it received in this test. inactive

Given `CC(C)C=O` , state the outcome it received in this test. inactive

Given CCC1CO1 (stereo not drawn) , state the outcome it received in this test. inactive

Given OC(CCN1CCCC1)(c1ccccc1)C1CCCCC1 (stereo not drawn) , state the outcome it received in this test. inactive

Given `C/C=C/C=C/C=O` , state the outcome it received in this test. inactive

Given `COc1ccccc1Oc1c(NS(=O)(=O)c2ccc(C(C)(C)C)cc2)nc(-c2ncccn2)nc1OCCO` , state the outcome it received in this test. inactive

Given `C1C[C@@H]2[C@H]3CC[C@H](C3)[C@@H]2C1` , state the outcome it received in this test. inactive

Given `O=C(/C=C/c1ccccc1)OCCc1ccccc1` , state the outcome it received in this test. inactive

Given `CC(C)=CCC/C(C)=C/CC/C(C)=C/CCC(=O)OC/C=C(\C)CCC=C(C)C` , state the outcome it received in this test. inactive

Given `CCOC(=O)c1ccc(O)c(O)c1` , state the outcome it received in this test. inactive

Given `CC=C(Cl)Cl` , state the outcome it received in this test. inactive

Given `COC(=O)c1nc(Cl)c(Cl)nc1N` , state the outcome it received in this test. active

Given `C=C1c2cccc(O)c2C(O)=C2C(=O)[C@]3(O)C(O)=C(C(N)=O)C(=O)[C@@H](N(C)C)[C@@H]3[C@@H](O)[C@H]12` , state the outcome it received in this test. inactive

Given `CCCCN(CCN(CCCC)C(=O)N1CCOCC1)C(=O)N1CCOCC1` , state the outcome it received in this test. inactive

Given `O=c1c(O)c(-c2ccc(O)cc2)oc2cc(O)cc(O)c12` , state the outcome it received in this test. inactive

* * *

- Protocol Text: qHTS assay to identify small molecule agonists of H2AX - cell viability counter screen (AID 1224847); further: nearly all actives have a fitted effect of over 30% in size
- Condition Summary: CHO-K1 viability, CellTiter-Glo luminescence, 3 h; series mostly up to 154 µM
Inconclusive results are not listed. The source made the active and inactive calls. Calls follow the shape of the full dose curve.
I would appreciate it if you answered using one of these outcomes: active, inactive

# example entries with known answers
Oc1c(I)cc(I)c2cccnc12 :: inactive
C=C(C)[C@@H]1CCC2=CCC[C@@H](C)[C@]2(C)C1 :: inactive
Oc1ccc(Cl)c2cccnc12 :: inactive

Given CCOC(=O)C1=C(C)NC(C)=C(C(=O)OC)C1c1cccc(Cl)c1Cl (centres undefined) , state the outcome it received in this test. inactive

Given Nc1cccc2c1CN(C1CCC(=O)NC1=O)C2=O (centres undefined) , state the outcome it received in this test. inactive

Given `CC(=O)Oc1ccc([N+](=O)[O-])cc1CCl` , state the outcome it received in this test. inactive

Given `CC(C)Nc1cccnc1N1CCN(C(=O)c2cc3cc(NS(C)(=O)=O)ccc3[nH]2)CC1` , state the outcome it received in this test. inactive

Given CN1CCCC(n2nc(Cc3ccc(Cl)cc3)c3ccccc3c2=O)CC1 (centres undefined) , state the outcome it received in this test. inactive

Given CCC(C)COC(C)=O (centres undefined) , state the outcome it received in this test. inactive

Given `O=[N+]([O-])c1ccc(Nc2ccc(Nc3ccccc3)c(S(=O)(=O)O)c2)c([N+](=O)[O-])c1` , state the outcome it received in this test. inactive

Given `Cc1c(C)c2c(c(C)c1OC(=O)CCC(=O)OCCO)CC[C@@](C)(CCC[C@H](C)CCC[C@H](C)CCCC(C)C)O2` , state the outcome it received in this test. inactive

Given `CN(C)CCC=C1c2ccccc2C=Cc2ccccc21` , state the outcome it received in this test. inactive

Given CN1C(=O)N(c2ccccc2Br)Cc2cnc(Nc3ccc4c(c3)OCC(CO)O4)nc21 (centres undefined) , state the outcome it received in this test. active

Given `CC(C)=CC(=O)C=C(C)C` , state the outcome it received in this test. inactive

* * *

- Test Target: Luciferin 4-monooxygenase (Photinus pyralis)
- Protocol Text: qHTS assay to identify small molecule inhibitors of firefly luciferase (AID 1224835); further: nearly all actives have a fitted effect of over 25% in size
- Condition Summary: purified P. pyralis luciferase, luminescence inhibition; series mostly up to 52.9 µM
Inconclusive results are not listed. Calls of active or inactive are those of the source. The call rests on the fitted dose curve; in most records, active means well fitted inhibition curve with a large enough effect in the repeat runs; inconclusive means weak or mixed curves; inactive means flat fitted curve, though single readings scatter.
I would appreciate it if you answered using one of these outcomes: T = active, F = inactive

CN1C(=O)N(c2ccccc2Br)Cc2cnc(Nc3ccc4c(c3)OCC(CO)O4)nc21 (stereo unspecified) :: T

Given `CC(C)c1nc(CN(C)C(=O)N[C@H](C(=O)N[C@@H](Cc2ccccc2)C[C@H](O)[C@H](Cc2ccccc2)NC(=O)OCc2cncs2)C(C)C)cs1` , state the outcome it received in this test. F

Given `CC1=C(Br)C(=O)C(Br)=C/C1=C(/c1ccccc1S(=O)(=O)O)c1cc(Br)c(O)c(Br)c1C` , state the outcome it received in this test. T

Given `Oc1cc2c(cc1O)[C@H]1c3ccc(O)c(O)c3OC[C@@]1(O)C2` , state the outcome it received in this test. T

Given `N#CCCN(CCO)CCO` , state the outcome it received in this test. F

Given `C=Cc1ccc(S(=O)(=O)O)cc1` , state the outcome it received in this test. T

Ref: PubChem BioAssay (Tox21)
